B1: Cyclin-F, residues 28 to 80; numbered along this chain, P41002 (parent)
chain: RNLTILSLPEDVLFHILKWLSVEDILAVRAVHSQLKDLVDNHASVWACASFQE

# Variants of: B1
# method: abundance fitness (aPCA) (normalised: wild type 0, dead -1); higher = more abundant; growth selection in yeast, the domain comes from the species named
# conditionParameters: Homo sapiens

# constructSequence, abundance fitness
records = [
    ("RNLTILSLPEDVLFHILKWLSVEDILAPRAVHSQLKDLVDNHASVWACASFQE", -0.88),
    ("RNLTILSLPEDVLFHILKDLSVEDILAVRAVHSQLKDLVDNHASVWACASFQE", -0.137),
    ("RNLTILSLPEDVLFHILHWLSVEDILAVRAVHSQLKDLVDNHASVWACASFQE", -0.122),
    ("RNLTILSLPEDVLFHILKWLSVEDGLAVRAVHSQLKDLVDNHASVWACASFQE", -1.08),
    ("RNLTILSLPEDVLFHILKWLSVEDILAVRAVHSQLKDLVDNHASRWACASFQE", -0.031),
    ("RNLTILSLPEDVLFHILKWLSVEDILAVRAVHSQLKDLVDNHAGVWACASFQE", 0.05),
    ("RNLTILSLPEDVLFHILKWLSVEDIYAVRAVHSQLKDLVDNHASVWACASFQE", -0.386),
    ("RNLTILSLPEDVLFHILKWLSVEDILAVRAVHSQLRDLVDNHASVWACASFQE", 0.054),
    ("RNLTILSLPEDVLFHILKWLSVEDILAVRAMHSQLKDLVDNHASVWACASFQE", -0.681),
    ("RNLTILSLPEDVLFLILKWLSVEDILAVRAVHSQLKDLVDNHASVWACASFQE", -0.204),
    ("RNLTILSLPEDVLFHILKWLSVEDNLAVRAVHSQLKDLVDNHASVWACASFQE", -1.14),
    ("RNATILSLPEDVLFHILKWLSVEDILAVRAVHSQLKDLVDNHASVWACASFQE", -0.708),
    ("RNLTILSLSEDVLFHILKWLSVEDILAVRAVHSQLKDLVDNHASVWACASFQE", -0.672),
    ("RNLTILSLPEDVLKHILKWLSVEDILAVRAVHSQLKDLVDNHASVWACASFQE", 0.226),
    ("RHLTILSLPEDVLFHILKWLSVEDILAVRAVHSQLKDLVDNHASVWACASFQE", -0.065),
    ("RNYTILSLPEDVLFHILKWLSVEDILAVRAVHSQLKDLVDNHASVWACASFQE", 0.109),
    ("RNLTILSLPEDVLFHILKWLSVEDILAVRAVHSQLKDLVDNHASTWACASFQE", 0.131),
    ("RNLTILSLPEDVLFHILFWLSVEDILAVRAVHSQLKDLVDNHASVWACASFQE", -0.573),
    ("RNLTILSLPEDVLFHILKCLSVEDILAVRAVHSQLKDLVDNHASVWACASFQE", 0.229),
    ("RNLTILSLPEDVLFHILKWLSVEDILRVRAVHSQLKDLVDNHASVWACASFQE", -0.047),
    ("RNLTILSLPEDVLFHILKWLSVEDILAVRAVHSQLKDLVDNHPSVWACASFQE", -0.039),
    ("RNLTILSLPEDVLFHILKWLTVEDILAVRAVHSQLKDLVDNHASVWACASFQE", -0.126),
    ("RNLTILSLPEDVLFHILEWLSVEDILAVRAVHSQLKDLVDNHASVWACASFQE", -0.148),
    ("RNLTILSLPEDVLQHILKWLSVEDILAVRAVHSQLKDLVDNHASVWACASFQE", -0.08),
    ("RNLTILSLPEDVLFHCLKWLSVEDILAVRAVHSQLKDLVDNHASVWACASFQE", -0.341),
    ("RNLTILSLPEDVLFHILKWLSVEDILAVRAVHSQLKDLVDGHASVWACASFQE", -0.033),
    ("RNLTILSLPEDVLFHILKWISVEDILAVRAVHSQLKDLVDNHASVWACASFQE", -0.673),
    ("RNLHILSLPEDVLFHILKWLSVEDILAVRAVHSQLKDLVDNHASVWACASFQE", -0.059),
    ("RNLTILSLPEDVLFHILKWLSVEDILAVRAVHSQLKDMVDNHASVWACASFQE", -0.008),
    ("RNLTILSLPEDVLFHILKWLSVEDILAVRAVHSQLKDLVDNHASVKACASFQE", -0.289),
    ("RNLTILSLPEDVLFHILKWLSVEDILAVRAVHSQLKDLVDNHASVWSCASFQE", -0.114),
    ("RNLTILSLPEDVLFHILKWLSVEDILAVRAVHSQLKDLVFNHASVWACASFQE", -0.828),
    ("RNLTILSLPEDVLFHILKWLSVEDILAVRAVHSQLKDLVKNHASVWACASFQE", -0.805),
]
